Each recorded value in this set is attributed to ChEMBL document CHEMBL1121781.

These molecules were tested on Nucleic Acid; Log K is the recorded read-out.

For the record "CC(=O)c1ccc(Nc2c3ccccc3nc3ccccc23)cc1" , what value of Log K is listed for Nucleic Acid?
5.89

"CC(C)c1ccccc1Nc1c2ccccc2nc2ccccc12" ?
4.92

"Nc1cccc(Nc2c3ccccc3nc3ccccc23)c1" ?
6.01

"CNc1ccc(Nc2c3ccccc3nc3ccccc23)cc1" ?
6.54

"O=[N+]([O-])c1ccc(Nc2c3ccccc3nc3ccccc23)cc1" ?
5.69

"CCOc1ccccc1Nc1c2ccccc2nc2ccccc12" ?
5.08

---

test: physchem
Description: Ionisation constant (pKa)
property-measured: pKa
Please state the value as a number alone, without comment.

What value of measured pKa is listed for "COC(=O)Nc1ccccc1Nc1c2ccccc2nc2ccccc12" ?
7.24

"O=S(=O)(Nc1ccc(Nc2c3ccccc3nc3ccccc23)cc1)c1ccccc1" ?
7.09

"Clc1ccccc1Nc1c2ccccc2nc2ccccc12" ?
6.55

"Cc1ccc(Nc2c3ccccc3nc3ccccc23)cc1" ?
7.72

"CC(C)(C)c1ccccc1Nc1c2ccccc2nc2ccccc12" ?
7.62

"CS(=O)(=O)Nc1ccccc1Nc1c2ccccc2nc2ccccc12" ?
6.86

"COC(=O)Nc1ccc(Nc2c3ccccc3nc3ccccc23)cc1" ?
7.64

"CC(=O)Nc1ccc(Nc2c3ccccc3nc3ccccc23)cc1" ?
7.51

"Clc1cccc(Nc2c3ccccc3nc3ccccc23)c1" ?
6.76

"c1cncc(Nc2c3ccccc3nc3ccccc23)c1" ?
6.46

"Oc1ccc(Nc2c3ccccc3nc3ccccc23)cc1" ?
7.91

---

assay: physchem
property-measured: pKa
Please state the value as a number alone, without comment.

What value of measured pKa is listed for "Cc1ccccc1Nc1c2ccccc2nc2ccccc12" ?
7.76

"O=[N+]([O-])c1cccc(Nc2c3ccccc3nc3ccccc23)c1" ?
6.26

"CCCNc1ccc(Nc2c3ccccc3nc3ccccc23)cc1" ?
8.25

"O=C(Nc1ccc(Nc2c3ccccc3nc3ccccc23)cc1)c1ccccc1" ?
7.39

"Cc1cccc(Nc2c3ccccc3nc3ccccc23)c1" ?
7.52

"Fc1ccc(Nc2c3ccccc3nc3ccccc23)cc1" ?
7.5

"CNS(=O)(=O)c1ccc(Nc2c3ccccc3nc3ccccc23)cc1" ?
6.02

"CC(C)c1ccccc1Nc1c2ccccc2nc2ccccc12" ?
7.64

"COc1ccc(Nc2c3ccccc3nc3ccccc23)cc1" ?
7.94

"Nc1ccc(S(=O)(=O)Nc2ccc(Nc3c4ccccc4nc4ccccc34)cc2)cc1" ?
7.15

"c1ccc(Nc2c3ccccc3nc3ccccc23)cc1" ?
7.46

"CN(c1ccccc1Nc1c2ccccc2nc2ccccc12)S(C)(=O)=O" ?
6.97

"CS(=O)(=O)NCc1ccccc1Nc1c2ccccc2nc2ccccc12" ?
7.17

"Nc1ccccc1Nc1c2ccccc2nc2ccccc12" ?
7.87

"CC(=O)Nc1cccc(Nc2c3ccccc3nc3ccccc23)c1" ?
7.16

"Brc1ccccc1Nc1c2ccccc2nc2ccccc12" ?
6.41

"CCOc1ccccc1Nc1c2ccccc2nc2ccccc12" ?
7.85

"CCc1ccccc1Nc1c2ccccc2nc2ccccc12" ?
7.68

"CS(=O)(=O)c1ccc(Nc2c3ccccc3nc3ccccc23)cc1" ?
5.81

"COc1ccccc1Nc1c2ccccc2nc2ccccc12" ?
7.74

"Clc1ccc(Nc2c3ccccc3nc3ccccc23)cc1" ?
7.06

"Nc1ccc(Nc2c3ccccc3nc3ccccc23)cc1" ?
8.36

"CN(C)c1ccc(Nc2c3ccccc3nc3ccccc23)cc1" ?
8.46

"N#Cc1ccc(Nc2c3ccccc3nc3ccccc23)cc1" ?
5.93

"COc1cccc(Nc2c3ccccc3nc3ccccc23)c1" ?
7.21
